These measurements were taken from the Immune Epitope Database (IEDB).

target_or_system: HLA-A*31:01
assay_info: IEDB peptide-MHC binding, purified MHC/competitive/radioactivity; filed as Kd, often an IC50 or EC50 that approximates it; bounds were set here for any values at or beyond the usual limits of such assays
experimental_conditions: source organism: SARS coronavirus Tor2
Could you please mark YES for values of Kd below 2000 nM and NO for values at or above it?

INPUT: Please let me know if `KLSYGIATVR` shows Kd below 2000 nM.
OUTPUT: YES

###

target_or_system: HLA-A*26:02
assay_info: IEDB peptide-MHC binding, purified MHC/direct/fluorescence; filed as Kd, often an IC50 or EC50 that approximates it; bounds were set here for any values at or beyond the usual limits of such assays
experimental_conditions: source organism: West Nile virus
measured_endpoint: Kd (nM)
Numeric answer only, unit nM assumed.

INPUT: Reported Kd, sequence `LTKEEFTRY` : ____
OUTPUT: 280

###

target_or_system: HLA-B*40:01
assay_info: IEDB peptide-MHC binding, purified MHC/competitive/radioactivity; filed as Kd, often an IC50 or EC50 that approximates it; bounds were set here for any values at or beyond the usual limits of such assays
experimental_conditions: source organism: Dengue virus 4 Philippines/H241/1956
Each record here notes measured Kd.
Numeric answer only, unit nM assumed.

{"seq": "QEVPFCSHHF", "measured_endpoint": "Kd", "numeric_value": 4870}

INPUT: Can you look up Kd on HLA-B*40:01 for `REDLWCGSL` ?
OUTPUT: 2.35

INPUT: Can you look up Kd on HLA-B*40:01 for `EEYVDYMPV` ?
OUTPUT: 190

INPUT: Can you look up Kd on HLA-B*40:01 for `AEGVITQDDM` ?
OUTPUT: 1310

###

target_or_system: HLA-A*30:01
assay_info: IEDB peptide-MHC binding, purified MHC/competitive/fluorescence; filed as Kd, often an IC50 or EC50 that approximates it; bounds were set here for any values at or beyond the usual limits of such assays
experimental_conditions: source organism: Salmonella enterica subsp. enterica serovar Typhi
pKd: −log10 of the molar value.
measured_endpoint: pKd

INPUT: Reported pKd, sequence `LSEEANWAF` : ____
OUTPUT: ≤ 4.70

###

target_or_system: HLA-B*15:01
assay_info: IEDB peptide-MHC binding, purified MHC/competitive/fluorescence; bounds were set here for any values at or beyond the usual limits of such assays
experimental_conditions: source organism: Sudan ebolavirus
pIC50: −log10 of the molar value.
measured_endpoint: pIC50

INPUT: Reported pIC50, sequence `ILAKPKETF` : ____
OUTPUT: ≤ 3.99

###

target_or_system: HLA-A*02:06
assay_info: IEDB peptide-MHC binding, purified MHC/competitive/radioactivity; filed as Kd, often an IC50 or EC50 that approximates it; bounds were set here for any values at or beyond the usual limits of such assays
experimental_conditions: source organism: Vaccinia virus WR
measured_endpoint: Kd (µM)
Numeric answer only, unit µM assumed.

{"seq": "CVDHPFIYVI", "numeric_value": 1.61}

INPUT: Reported Kd, sequence `LVIRNEVNDT` : ____
OUTPUT: 2.17

INPUT: Reported Kd, sequence `SVIFYFISI` : ____
OUTPUT: 0.000169

INPUT: Reported Kd, sequence `DQLVFNSISA` : ____
OUTPUT: 0.759

INPUT: Reported Kd, sequence `MVEYLENQL` : ____
OUTPUT: 3.96

INPUT: Reported Kd, sequence `NQGNILMDSI` : ____
OUTPUT: 3.09

INPUT: Reported Kd, sequence `LISILMIFI` : ____
OUTPUT: 7.04
